Target: ALK tyrosine kinase receptor (Homo sapiens, UniProt Q9UM73, L1196M)
Sequence (Q9UM73 19-1620 L1196M limits assumed): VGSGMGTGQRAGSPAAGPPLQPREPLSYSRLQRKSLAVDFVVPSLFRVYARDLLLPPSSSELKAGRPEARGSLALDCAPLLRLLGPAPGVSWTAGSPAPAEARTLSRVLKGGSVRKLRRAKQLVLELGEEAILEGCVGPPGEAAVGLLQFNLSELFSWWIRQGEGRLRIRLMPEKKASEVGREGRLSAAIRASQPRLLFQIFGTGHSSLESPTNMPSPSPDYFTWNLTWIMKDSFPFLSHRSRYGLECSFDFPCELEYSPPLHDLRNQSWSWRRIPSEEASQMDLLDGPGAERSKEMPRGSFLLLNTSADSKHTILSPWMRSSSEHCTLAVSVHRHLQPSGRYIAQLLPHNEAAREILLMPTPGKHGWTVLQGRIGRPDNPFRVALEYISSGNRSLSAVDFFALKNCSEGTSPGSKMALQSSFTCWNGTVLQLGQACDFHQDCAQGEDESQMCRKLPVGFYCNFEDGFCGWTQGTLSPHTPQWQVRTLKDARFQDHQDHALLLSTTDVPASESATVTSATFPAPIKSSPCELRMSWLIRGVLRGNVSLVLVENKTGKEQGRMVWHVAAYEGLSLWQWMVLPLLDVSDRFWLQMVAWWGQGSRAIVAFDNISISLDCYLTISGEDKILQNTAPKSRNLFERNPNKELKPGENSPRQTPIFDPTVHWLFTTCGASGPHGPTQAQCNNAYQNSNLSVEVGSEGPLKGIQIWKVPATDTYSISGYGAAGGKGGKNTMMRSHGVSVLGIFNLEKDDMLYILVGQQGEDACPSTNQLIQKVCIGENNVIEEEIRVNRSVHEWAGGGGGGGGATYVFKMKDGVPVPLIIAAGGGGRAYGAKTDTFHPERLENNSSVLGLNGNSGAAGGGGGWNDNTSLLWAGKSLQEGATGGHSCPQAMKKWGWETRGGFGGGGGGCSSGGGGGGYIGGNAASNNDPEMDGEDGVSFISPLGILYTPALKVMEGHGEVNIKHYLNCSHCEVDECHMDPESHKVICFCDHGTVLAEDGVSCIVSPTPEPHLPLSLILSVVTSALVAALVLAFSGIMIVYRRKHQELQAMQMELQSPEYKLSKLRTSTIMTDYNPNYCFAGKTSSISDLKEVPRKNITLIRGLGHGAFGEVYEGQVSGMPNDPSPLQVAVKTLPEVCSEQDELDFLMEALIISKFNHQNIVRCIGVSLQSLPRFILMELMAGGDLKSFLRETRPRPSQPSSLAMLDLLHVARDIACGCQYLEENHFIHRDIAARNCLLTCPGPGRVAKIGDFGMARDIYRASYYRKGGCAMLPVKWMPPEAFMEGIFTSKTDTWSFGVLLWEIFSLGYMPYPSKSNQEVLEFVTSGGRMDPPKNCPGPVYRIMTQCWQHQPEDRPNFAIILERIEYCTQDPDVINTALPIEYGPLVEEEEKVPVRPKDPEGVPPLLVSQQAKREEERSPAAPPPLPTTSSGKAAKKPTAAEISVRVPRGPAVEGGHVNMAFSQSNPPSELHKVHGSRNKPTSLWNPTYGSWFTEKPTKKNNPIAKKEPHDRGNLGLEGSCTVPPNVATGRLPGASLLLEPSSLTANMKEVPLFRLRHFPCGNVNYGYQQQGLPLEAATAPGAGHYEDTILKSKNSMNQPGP
Quantity Name: IC50

[[record]]
structure_notation = "COc1cc(-n2cc(CN3CCN(C)CC3)nn2)ccc1Nc1ncc(Cl)c(Nc2ccccc2S(=O)(=O)C(C)C)n1"
quantity_name = "IC50"
val = "3.1 nM"


====

Target: Hepatocyte growth factor receptor (Homo sapiens, UniProt P08581)
Sequence (P08581 whole entry, the tested form may be a part): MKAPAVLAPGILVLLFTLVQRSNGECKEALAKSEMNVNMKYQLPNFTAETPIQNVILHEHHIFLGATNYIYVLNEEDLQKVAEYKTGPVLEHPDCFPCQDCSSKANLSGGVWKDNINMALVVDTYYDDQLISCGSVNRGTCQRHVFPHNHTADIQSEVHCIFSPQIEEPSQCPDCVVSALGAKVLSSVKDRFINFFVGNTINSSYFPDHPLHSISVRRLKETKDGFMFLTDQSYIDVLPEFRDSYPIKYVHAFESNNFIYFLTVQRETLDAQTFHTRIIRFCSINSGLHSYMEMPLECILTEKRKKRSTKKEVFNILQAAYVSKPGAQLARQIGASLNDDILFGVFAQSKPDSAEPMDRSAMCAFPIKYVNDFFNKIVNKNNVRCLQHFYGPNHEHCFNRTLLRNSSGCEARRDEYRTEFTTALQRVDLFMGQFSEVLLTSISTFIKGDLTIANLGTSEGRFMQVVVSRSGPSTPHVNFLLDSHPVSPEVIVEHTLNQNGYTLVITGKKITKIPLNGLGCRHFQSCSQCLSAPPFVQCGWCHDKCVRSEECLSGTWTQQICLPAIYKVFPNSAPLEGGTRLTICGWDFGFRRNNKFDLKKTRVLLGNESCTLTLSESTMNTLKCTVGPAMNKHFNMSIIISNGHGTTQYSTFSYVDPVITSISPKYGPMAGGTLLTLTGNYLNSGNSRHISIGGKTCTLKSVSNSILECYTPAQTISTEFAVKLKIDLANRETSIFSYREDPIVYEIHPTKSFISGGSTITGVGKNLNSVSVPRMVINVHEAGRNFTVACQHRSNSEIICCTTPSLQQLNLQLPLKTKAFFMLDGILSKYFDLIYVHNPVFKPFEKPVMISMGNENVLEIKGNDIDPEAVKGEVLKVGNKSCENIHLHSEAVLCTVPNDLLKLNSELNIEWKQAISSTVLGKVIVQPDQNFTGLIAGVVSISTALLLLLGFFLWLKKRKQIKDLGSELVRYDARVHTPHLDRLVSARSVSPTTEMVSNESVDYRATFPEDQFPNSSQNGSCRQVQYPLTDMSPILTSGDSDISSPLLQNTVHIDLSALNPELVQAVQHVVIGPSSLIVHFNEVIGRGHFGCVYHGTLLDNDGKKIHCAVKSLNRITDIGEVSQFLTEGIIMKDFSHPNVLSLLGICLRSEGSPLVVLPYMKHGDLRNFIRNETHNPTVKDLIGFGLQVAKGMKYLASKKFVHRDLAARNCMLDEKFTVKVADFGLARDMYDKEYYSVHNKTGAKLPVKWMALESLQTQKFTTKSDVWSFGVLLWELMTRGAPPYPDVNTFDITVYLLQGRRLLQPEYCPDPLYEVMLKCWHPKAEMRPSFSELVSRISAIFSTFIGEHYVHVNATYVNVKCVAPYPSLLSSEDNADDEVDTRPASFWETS
Test: Inhibition of recombinant human N-terminal GST-tagged c-MET cytoplasmic domain (956 to 1390 residues) expressed in baculovirus expression system using peptide substrate after 1 hr by mobility shift assay
Entries annotated with measured IC50
Quantity Name: IC50 (nM)

[[record]]
structure_notation = "COc1cc(-n2cc(CN3CCC(C)CC3)nn2)ccc1Nc1ncc(Cl)c(Nc2ccccc2S(=O)(=O)C(C)C)n1"
unit_info = "nM"
sign_qualifier = "="
val = 703

[[record]]
structure_notation = "COc1cc(-c2nc(CN3CCN(C)CC3)cs2)ccc1Nc1ncc(Cl)c(Nc2ccccc2S(=O)(=O)C(C)C)n1"
unit_info = "nM"
sign_qualifier = "="
val = 820

[[record]]
structure_notation = "COc1cc(-c2nc(CN3CCC(C)CC3)cs2)ccc1Nc1ncc(Cl)c(Nc2ccccc2S(=O)(=O)C(C)C)n1"
unit_info = "nM"
sign_qualifier = "="
val = 967

[[record]]
structure_notation = "CC(C)Oc1cc(-c2nc(CN3CCN(C)CC3)cs2)ccc1Nc1ncc(Cl)c(Nc2ccccc2S(=O)(=O)C(C)C)n1"
unit_info = "nM"
sign_qualifier = ">"
val = 1000

[[record]]
structure_notation = "COc1cc(-n2cc(CN3CCN(C)CC3)nn2)ccc1Nc1ncc(Cl)c(Nc2ccccc2S(=O)(=O)C(C)C)n1"
unit_info = "nM"
sign_qualifier = ">"
val = 1000

[[record]]
structure_notation = "CC(C)Oc1cc(-c2nc(CN3CCN(CCO)CC3)cs2)ccc1Nc1ncc(Cl)c(Nc2ccccc2S(=O)(=O)C(C)C)n1"
unit_info = "nM"
sign_qualifier = ">"
val = 1000

[[record]]
structure_notation = "COc1cc(-n2cc(CN3CCNCC3)nn2)ccc1Nc1ncc(Cl)c(Nc2ccccc2S(=O)(=O)C(C)C)n1"
unit_info = "nM"
sign_qualifier = ">"
val = 1000

[[record]]
structure_notation = "COc1cc(-n2cc(CN3C[C@@H](C)N[C@@H](C)C3)nn2)ccc1Nc1ncc(Cl)c(Nc2ccccc2S(=O)(=O)C(C)C)n1"
unit_info = "nM"
sign_qualifier = "="
val = 731

